- ASSAYED_SYSTEM: BzdR (CBzdR, C-terminal effector-binding domain)
- Construct: His6-CBzdR, residues 131–298
- MEASUREMENT_PROTOCOL: intrinsic protein fluorescence titration, one-site model
MEASURED_METRIC: Kd (µM)

# MOLECULE, MEASURED_METRIC, VALUE_REPORTED
measured = [
    ("CC(C)(COP(=O)(O)OP(=O)(O)OC[C@H]1O[C@@H](n2cnc3c(N)ncnc32)[C@H](O)[C@@H]1OP(=O)(O)O)[C@@H](O)C(=O)NCCC(=O)NCCSC(=O)c1ccccc1", "Kd", 203),
]
